FYI, the data here is from paper PMC11243685.

Target: bovine carbonic anhydrase II (Bos taurus, UniProt P00921)
Construct: carbonic anhydrase II (bCAII, ≥3000 W-A units/mg from bovine erythrocytes) from Sigma; purchased Sigma (Taufkirchen, Germany); host or cells: isolated from bovine erythrocytes
Sequence (P00921 whole entry): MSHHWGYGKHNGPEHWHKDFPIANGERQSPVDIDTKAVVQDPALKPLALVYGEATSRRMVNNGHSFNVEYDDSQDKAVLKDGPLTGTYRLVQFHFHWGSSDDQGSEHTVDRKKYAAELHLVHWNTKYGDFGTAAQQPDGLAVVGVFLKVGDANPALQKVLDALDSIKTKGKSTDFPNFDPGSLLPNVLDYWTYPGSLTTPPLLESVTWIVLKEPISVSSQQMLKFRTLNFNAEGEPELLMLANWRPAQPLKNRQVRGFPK
Test: Enzymatic assay of bCA II inhibition, absorbance at 415 nm
Assay type: biochemical
Conditions: bCA II; 1 μM concentration of the inhibitor; triplicate with three technical replicas
value.kind: inhibition at 1 µM (%)
Your answer should be a plain number; it is taken to be in %.

Consider the following illustrative entries.
{"columns": ["molecule", "value.kind", "endpoint.unit", "test.value"],
 "data": [
  ["Cc1ccc(S(=O)(=O)NCCCCCOS(N)(=O)=O)cc1 [15b]", "inhibition at 1 µM", "%", 58.9],
  ["Cc1ccc(S(=O)(=O)NCCCCCCCCOS(N)(=O)=O)cc1 [18b]", "inhibition at 1 µM", "%", 54.7],
  ["Cc1ccccc1S(=O)(=O)NCCCOS(N)(=O)=O [27b]", "inhibition at 1 µM", "%", 50],
  ["NS(=O)(=O)OCCCCCNS(=O)(=O)c1ccccc1 [4b, 5-(Phenylsulfonamido]pentyl Sulfamate]", "inhibition at 1 µM", "%", 51.8]
]}

Suppose we examine the molecule CC(C)(C)c1ccc(S(=O)(=O)NCCCOS(N)(=O)=O)cc1 [50b] ; what inhibition at 1 µM value has been reported?
63.4

====

Biological target: bovine carbonic anhydrase II (Bos taurus, UniProt P00921)
Construct: carbonic anhydrase II (bCAII, ≥3000 W-A units/mg from bovine erythrocytes) from Sigma; purchased Sigma (Taufkirchen, Germany); host or cells: isolated from bovine erythrocytes
Test: Enzymatic assay of bCA II inhibition, absorbance at 415 nm
Assay type: biochemical
Conditions: bCA II; 1 μM concentration of the inhibitor; triplicate with three technical replicas
value.kind: inhibition at 1 µM (%)
Your answer should be a plain number; it is taken to be in %.

{"columns": ["compound", "system.tested", "endpoint.unit", "test.value"],
 "data": [
  ["NS(=O)(=O)OCCCCCCCCCCCCNS(=O)(=O)c1ccccc1 [11b, 12-(Phenylsulfonamido]dodecyl Sulfamate]", "bovine carbonic anhydrase II (Bos taurus, UniProt P00921)", "%", 5.9],
  ["Cc1ccc(S(=O)(=O)NCCCCCCOS(N)(=O)=O)cc1 [16b]", "bovine carbonic anhydrase II (Bos taurus, UniProt P00921)", "%", 40.3],
  ["CC(C)(C)c1ccc(S(=O)(=O)NCCCCOS(N)(=O)=O)cc1 [51b]", "bovine carbonic anhydrase II (Bos taurus, UniProt P00921)", "%", 44.9],
  ["CC(C)c1ccc(S(=O)(=O)NCCCCCOS(N)(=O)=O)cc1 [36b]", "bovine carbonic anhydrase II (Bos taurus, UniProt P00921)", "%", 40.8]
]}

Continue with the compound presented below.
Suppose we examine the compound CC(C)(C)c1cccc(S(=O)(=O)NCCCCCCCCOS(N)(=O)=O)c1 [64b] ; what inhibition at 1 µM value has been reported?
16

====

Target: bovine carbonic anhydrase II (Bos taurus, UniProt P00921)
Construct: carbonic anhydrase II (bCAII, ≥3000 W-A units/mg from bovine erythrocytes) from Sigma; purchased Sigma (Taufkirchen, Germany); host or cells: isolated from bovine erythrocytes
Test: Enzymatic assay of bCA II inhibition, absorbance at 415 nm;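 further: enzyme is carbonic anhydrase II isolated from bovine erythrocytes, with its activity followed photometrically at 415 nm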
Type: biochemical
Settings: bCA II; 1 μM concentration of the inhibitor; triplicate with three technical replicas
Recorded inhibition at 1 µM, one value per entry.
Note: a bare number is incomplete; add the unit.

{"columns": ["compound", "inhibition at 1 µM"],
 "data": [
  ["NS(=O)(=O)OCCNS(=O)(=O)c1ccc(C2CCCCC2)cc1 [68b]", "52.1%"],
  ["CC(C)(C)c1ccccc1S(=O)(=O)NCCCCCOS(N)(=O)=O [65b]", "56.2%"],
  ["NS(=O)(=O)OCCCCCCCCCCCNS(=O)(=O)c1ccccc1 [10b, 11-(Phenylsulfonamido]undecyl Sulfamate]", "7.2%"]
]}

Suppose we examine the compound CC(C)(C)c1ccc(S(=O)(=O)NCCCCCCCCCOS(N)(=O)=O)cc1 [56b] ; what inhibition at 1 µM value has been reported?
10%

Suppose we examine the compound Cc1ccccc1S(=O)(=O)NCCCCCOS(N)(=O)=O [29b] ; what inhibition at 1 µM value has been reported?
57.2%
